- System: Plasmodium berghei
- EXPERIMENT SUMMARY: Screen against P. berghei liver stage (PbLuc), transformed with Luciferase, at 10uM
- Format: functional, HepG2
- DETAILS: tested at 10 uM
Hit rate of the full screen: of about 69,000 compounds, about 8,600 (12%) showed an effect of 50% or more. The entries come from a sample that favours strong results as a whole.
# maps each entry to its INHIBITION
Just the number in %, nothing appended.

>>> readout_number("Cc1nccc([C@@H]2C[C@@H]3CCN(S(=O)(=O)N(C)C)C[C@H]3O2)n1")
26.3
>>> readout_number("COCC(=O)N1Cc2nccn2CC(Cn2ncccc2=O)C1 (stereo not drawn)")
19.4
>>> readout_number("CC(C)CCN1CCC2(CC1)NCc1ccccc1NC2=O")
25.9
>>> readout_number("CCN(CC)C(=O)Cn1ccc2cc(NC(=O)C3CC3)ccc21")
52.7
>>> readout_number("CCN(CC)c1ncccc1CNCc1cc2ccccc2s1")
5.91

Supply reported INHIBITION belonging to this compound: "CCCN(CCc1ccccn1)C(=O)Cn1cc(C)cn1"
78.8
